molecular target: Bifunctional epoxide hydrolase 2 (Homo sapiens); assay: Inhibition of recombinant human sEH using PHOME as substrate preincubated for 30 mins followed by substrate addition and measured after 30 mins by spectrofluorimetry
Sequence (P34913 whole entry): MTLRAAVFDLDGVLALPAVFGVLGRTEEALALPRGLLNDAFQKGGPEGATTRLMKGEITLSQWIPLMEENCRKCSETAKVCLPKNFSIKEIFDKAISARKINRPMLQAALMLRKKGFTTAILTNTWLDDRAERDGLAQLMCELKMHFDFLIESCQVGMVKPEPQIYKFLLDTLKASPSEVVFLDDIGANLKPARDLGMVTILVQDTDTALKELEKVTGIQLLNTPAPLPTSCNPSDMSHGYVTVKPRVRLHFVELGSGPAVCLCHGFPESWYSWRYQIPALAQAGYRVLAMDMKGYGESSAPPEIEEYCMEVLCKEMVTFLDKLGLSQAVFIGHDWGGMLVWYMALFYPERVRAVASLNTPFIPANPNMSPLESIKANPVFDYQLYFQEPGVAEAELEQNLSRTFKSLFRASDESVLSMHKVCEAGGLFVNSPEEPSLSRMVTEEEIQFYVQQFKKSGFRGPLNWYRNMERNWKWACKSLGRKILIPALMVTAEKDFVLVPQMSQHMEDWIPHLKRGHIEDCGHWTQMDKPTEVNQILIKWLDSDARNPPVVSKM
pIC50: −log10 of the molar value.
measured-endpoint: pIC50

Recorded pIC50, per entry:
COc1cc(C(=O)NS(=O)(=O)c2ccccc2C)ccc1Cc1cn(C)c2ccc(NC(=O)NC3CCCC3)cc12 | 6.23
COc1cc(C(=O)NS(=O)(=O)c2ccccc2)ccc1Cc1cn(C)c2ccc(NC(=O)OC3CCCC3)cc12 | 5.60
COc1cc(C(=O)NS(=O)(=O)c2cc(Cl)cc(Cl)c2)ccc1Cc1cn(C)c2ccc(NC(=O)NC3CCCCC3)cc12 | 6.26

[P] COc1cc(C(=O)NS(=O)(=O)c2ccccc2C)ccc1Cc1cn(C)c2ccc(NC(=O)NC3CCCCC3)cc12
[Q] COc1cc(C(=O)NS(=O)(=O)c2cccc(F)c2)ccc1Cc1cn(C)c2ccc(NC(=O)NC3CCCCC3)cc12
[R] COc1cc(C(=O)NS(=O)(=O)c2cccc(C(F)(F)F)c2)ccc1Cc1cn(C)c2ccc(NC(=O)NC3CCCCC3)cc12
[S] COc1cc(C(=O)NS(=O)(=O)c2cccc(Cl)c2)ccc1Cc1cn(C)c2ccc(NC(=O)OC3CCCC3)cc12
[T] COc1cc(C(=O)NS(=O)(=O)c2cccc(Cl)c2)ccc1Cc1cn(C)c2ccc(NC(=O)NC3CCCCC3)cc12
Order the records, beginning with the lowest pIC50 and ending with the highest. Submit the labels in the order that the ranking request calls for.
S, R, T, Q, P
(S: 5.15, R: 5.83, T: 6.17, Q: 6.39, P: 6.82)
